# Assay Text: P. falciparum blood-stage growth inhibition, late-stage follow-up, M18AAP inhibitor project, cell-based, radiolabel, 3D7, RBCs, Set2 (AID 720736)
# Recorded Conditions: P. falciparum 3D7 in RBCs, 3H-hypoxanthine incorporation, 48 h; run 1; at 10 µM; stronger effect = higher value
Endpoint Label: growth inhibition (%)

Example entries begin here.
Which growth inhibition value belongs to COc1ccc(CCNc2c3ccccc3nc3ccccc23)cc1 ? 100

Give its growth inhibition value. Item: Oc1ccc(CCNc2c3c(nc4ccccc24)CCCC3)cc1O 90

P. COc1ccc(CCNc2ccnc3c(C)cccc23)cc1OC
Q. COc1ccc(CCNC2CCN(C)CC2)cc1OC
R. Oc1ccc(CCNc2c3ccccc3nc3ccccc23)cc1
S. COc1ccc(CCN(C)c2ccnc3c(C)cccc23)cc1OC
Sort these compounds on growth inhibition so the largest reading comes first. Sort the labels as requested; that list is your answer. R, P, S, Q
(R: 95%, P: 20%, S: 5%, Q: 0%)
